- assay_system: CYP2D6 (Homo sapiens, UniProt P10635)
- Sequence (P10635 whole entry): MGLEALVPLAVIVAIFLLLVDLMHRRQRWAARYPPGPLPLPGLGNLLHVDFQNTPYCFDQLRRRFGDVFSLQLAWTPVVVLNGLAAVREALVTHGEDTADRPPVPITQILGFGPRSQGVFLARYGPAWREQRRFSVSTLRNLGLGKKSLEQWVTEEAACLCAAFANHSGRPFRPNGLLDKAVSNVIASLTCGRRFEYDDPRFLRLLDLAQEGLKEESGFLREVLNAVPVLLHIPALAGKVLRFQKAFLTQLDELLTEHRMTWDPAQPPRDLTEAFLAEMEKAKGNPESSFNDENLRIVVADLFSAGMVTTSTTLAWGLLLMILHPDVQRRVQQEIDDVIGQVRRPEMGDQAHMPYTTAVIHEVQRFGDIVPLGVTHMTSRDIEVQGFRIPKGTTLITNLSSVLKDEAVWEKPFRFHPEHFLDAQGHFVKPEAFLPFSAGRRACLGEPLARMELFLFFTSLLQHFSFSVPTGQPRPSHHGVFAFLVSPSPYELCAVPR
- assay_overview: Inhibition of CYP2D6 in human liver microsome at 3 uM pre-incubated with compound for 5 mins followed NADPH addition and measured after 10 mins by LC-MS/MS analysis relative to control
- recorded_conditions: liver microsomes
readout: inhibition at 10 min, 3 µM (%)

structure_smiles_string	assay_system	readout	unit_abbreviation	value_reported
C=C[C@H]1C[N@@]2CC[C@H]1C[C@@H]2[C@@H](O)c1ccnc2ccc(OC)cc12	CYP2D6 (Homo sapiens, UniProt P10635)	inhibition at 10 min, 3 µM	%	89.3

====

- Species: Homo sapiens
- assay_overview: Selectivity index, ratio of IC50 for human recombinant CYP1A1 to IC50 for human recombinant CYP1B1 using 7-ethoxyresorufin as substrate
readout: Ratio IC50

structure_smiles_string	readout	value_relation_sign	value_reported
NC(=O)c1ccc(-c2csc(C(=O)Nc3ccc(OC(F)F)cc3)n2)cc1	Ratio IC50	=	104
NC(=O)c1ccc(-c2csc(C(=O)Nc3cc(Cl)cc(Cl)c3)n2)cc1	Ratio IC50	>	12500
Cc1sc(C(=O)Nc2ccc(C(F)(F)F)cc2)nc1-c1cccc(Cl)c1	Ratio IC50	=	71.8
O=C(Nc1cc(Cl)cc(Cl)c1)c1nc(-c2ccc(F)cc2)c(-c2ccccc2)s1	Ratio IC50	=	0.1
O=C(Nc1cc(Cl)cc(Cl)c1)c1nc(-c2ccc(F)cc2)cs1	Ratio IC50	=	195
NC(=O)c1cccc(-c2csc(C(=O)Nc3cc(Cl)cc(Cl)c3)n2)c1	Ratio IC50	=	116
O=C(Nc1ccc(C(F)(F)F)cc1)c1nc(-c2cccc(F)c2)cs1	Ratio IC50	=	426
Cc1sc(C(=O)Nc2ccc(OC(F)F)cc2)nc1-c1cccc(Cl)c1	Ratio IC50	=	41.7
O=C(Nc1cc(Cl)cc(Cl)c1)c1nc(-c2ccnc(Cl)c2)cs1	Ratio IC50	=	16
O=C(Nc1ccc(OC(F)F)cc1)c1nc(-c2cccc(F)c2)cs1	Ratio IC50	=	7170
